Provenance of the data: patent US20180008629A1

# target: UniProt Q8R4B8
# Sequence (Q8R4B8 whole entry): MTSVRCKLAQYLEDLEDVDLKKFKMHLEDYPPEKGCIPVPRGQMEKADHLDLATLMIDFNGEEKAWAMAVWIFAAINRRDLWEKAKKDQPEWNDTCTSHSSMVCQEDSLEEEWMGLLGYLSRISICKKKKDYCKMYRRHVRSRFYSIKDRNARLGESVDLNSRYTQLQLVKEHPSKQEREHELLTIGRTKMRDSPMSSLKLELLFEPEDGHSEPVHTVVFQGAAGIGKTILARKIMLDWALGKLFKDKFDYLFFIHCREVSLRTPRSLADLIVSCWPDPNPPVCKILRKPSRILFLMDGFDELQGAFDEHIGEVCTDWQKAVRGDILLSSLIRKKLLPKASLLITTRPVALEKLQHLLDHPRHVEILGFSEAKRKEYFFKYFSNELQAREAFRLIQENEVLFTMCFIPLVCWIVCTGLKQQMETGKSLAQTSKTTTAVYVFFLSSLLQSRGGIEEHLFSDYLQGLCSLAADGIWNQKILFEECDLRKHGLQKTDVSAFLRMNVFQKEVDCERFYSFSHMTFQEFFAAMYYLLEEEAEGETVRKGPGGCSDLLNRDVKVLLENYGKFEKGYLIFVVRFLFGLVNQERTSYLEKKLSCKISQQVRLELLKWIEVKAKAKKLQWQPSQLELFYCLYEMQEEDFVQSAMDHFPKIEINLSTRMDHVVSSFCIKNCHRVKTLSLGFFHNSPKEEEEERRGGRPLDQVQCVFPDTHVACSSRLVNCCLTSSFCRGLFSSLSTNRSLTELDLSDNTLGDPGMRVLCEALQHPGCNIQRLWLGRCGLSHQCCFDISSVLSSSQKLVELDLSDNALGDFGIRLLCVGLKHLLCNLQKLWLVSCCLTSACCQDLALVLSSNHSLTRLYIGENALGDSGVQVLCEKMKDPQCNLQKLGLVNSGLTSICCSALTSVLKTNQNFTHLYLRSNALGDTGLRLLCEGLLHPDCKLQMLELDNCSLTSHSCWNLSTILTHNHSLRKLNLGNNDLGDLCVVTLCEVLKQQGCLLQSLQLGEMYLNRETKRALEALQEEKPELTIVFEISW
# assay protocol: NLRP3 inflammasome activation in LPS primed BMDMs (caspase-1 / IL-1β immunoblot)
# Format: cell-based
# Parameters: endogenous in cells; host or cells: mouse bone marrow derived macrophages (A1)
# test parameters: LPS primed BMDMs, ATP, co-treatment with BHB
quantity measured: effect on BHB's suppressive effects on ATP-induced NLRP3 inflammasome activation

Solved entries (count: 4):
# compound, result
data = [
    ("CC[C@H](C)[C@H](NC(=O)[C@H]([C@@H](C)CC)N(C)C(C)=O)C(=O)N[C@H](C(=O)N[C@@H](CC(C)C)C(=O)[C@@]1(C)CO1)[C@@H](C)O [epoxomicin, reference compound]", "did not abrogate"),
    ("N#C/C(=C\\c1ccc(-c2cc(Cl)ccc2Cl)o1)C(=O)Nc1cccc2ncccc12 [AGK2, reference compound]", "did not abrogate"),
    ("OO [hydrogen peroxide, reference compound]", "did not prevent"),
    ("C=C(C)[C@H]1Cc2c(ccc3c2O[C@@H]2COc4cc(OC)c(OC)cc4[C@@H]2C3=O)O1 [rotenone, reference compound]", "did not prevent"),
]

Turning to the following compound.
Query: Requested read-out effect on BHB's suppressive effects on ATP-induced NLRP3 inflammasome activation, target or system UniProt Q8R4B8, entry Cn1cnc(N)c2ncnc1-2 [3-methyladenine, reference compound]
Reply: did not abrogate
